Known TGI of a selection of compounds
# Tested on: TK-10 renal
# method summary: NCI tumour cell line growth inhibition, 48 h

Reference set (6 entries):
* COc1ccc2c(c1)C(=O)c1c-2n(CCCCl)c(=O)c2cc(N)ccc12 | > 100 µM
* Cn1cc(-c2nc(-c3cn(C)c4ncccc34)cs2)c2ccccc21 | 11.6 µM
* N#CCC(=O)Nc1ccccc1O | > 100 µM
* CCC(C)C(=O)OC1CCC=C2C=CC(C)C(CCC3CC(O)CC(=O)O3)C21 (stereo unspecified) | 98.8 µM
* C[C@@H](Oc1cc(-c2cnn(C3CCNCC3)c2)cnc1N)c1c(Cl)cc(F)cc1Cl | 11.6 µM
* CN(C(=O)c1ccccc1)c1ccc2c(c1)C(=O)c1ccccc1C2=O | > 100 µM

// TGI value for O=C1c2ccccc2C(=O)c2sc(Nc3ccc([N+](=O)[O-])cc3)nc21 : 26.4 µM

// field: TGI; key: CC(C)(C)OC(=O)C1/C(=C/CBr)CN1C(=O)OC(C)(C)C (stereo unspecified) ; value = 31.3 µM

Recorded TGI (compound CC(C)(C)NC(=S)N/N=C/c1ccccn1 ): > 100 µM

Cc1ccc(C2C3Cc4ccccc4C3=NN2c2ccc(S(=O)(=O)NC(=O)Nc3ccccc3)cc2)cc1 (stereo unspecified) has a reported TGI of 36.4 µM

Lookup result for CCOC(=O)CCc1ccc(NC(=O)/C=C/c2ccc([N+](=O)[O-])o2)cc1 ; measured TGI: 4.07 µM

In plain terms, Nc1ncc2c(n1)-c1ccccc1OC2N1CCOCC1 (stereo unspecified) has a documented TGI of > 100 µM

response.value for COC(=O)[C@H](C)N(C)C(=O)[C@H](C)N1[C@@H](c2ccccc2)COC1(C)C (field: TGI) = > 100 µM

Short answer for S=C1Cc2c(-c3ccccc3)cc(-c3ccc(Cl)cc3)nc2-c2ccccc2N1 : TGI was 8.41 µM

Quick note, TGI for COC(=O)/C(=N\N)C(C(=O)C(=O)Nc1nc(=S)[nH][nH]1)c1nc2ccc([N+](=O)[O-])cc2[nH]c1=O (stereo unspecified) landed at > 100 µM

Form field TGI, entry Cc1cnc2[nH]c(-c3ccc(Cl)cc3)cc(=O)c2c1 : > 100 µM

Please fill in: TGI reported for C1=C\CCCCN2CC[C@H]3[C@H](CCCC/C=C\CCCN4C[C@@H](CCCCC/1)C[C@@H]3C4)C2 = 12.4 µM

The compound listed as COc1cc(NCCC2CCCCN2)c2ncccc2c1OC (stereo unspecified) shows TGI equal to 39.7 µM

Sure, the documented TGI for O=C(Nc1ccc(Cl)cc1)N1CCN(c2ccc3nncn3n2)CC1 is > 100 µM

The recorded TGI for CCC(=O)CCC1=Nc2nnc(CCCCc3nnc4n3C(=O)C(CCC(=O)CC)=N4)n2C1=O is > 100 µM

Short answer for CC(=N\O)/C(C)=N/O.CC(=N\O)/C(C)=N/O.[Fe].[NH2-].c1c[nH]cn1 : TGI was > 100 µM

---

Quick reference for TGI among some molecules
# Tested on: SW-620 colon
# method summary: NCI tumour cell line growth inhibition, 48 h

Recorded TGI for c1ccc2c(c1)[nH]c1c3ccccc3sc21 on SW-620 colon was > 100 µM

// molecule COc1ccc(-c2nnc(Nc3nc(O)c(C4=c5cc(Br)ccc5=NC4=O)s3)o2)cc1 , assay SW-620 colon, TGI value: > 100 µM

I looked up CN1/C(=C/C=C/c2n(Cc3ccc4ccccc4c3)c(Cl)c(Cl)[n+]2Cc2ccc3ccccc3c2)Oc2ccccc21 and its TGI for SW-620 colon was 1.15 µM

Noted TGI for CCCCC[C@H]1C/C=C2/C(=O)C(Cl)=C[C@@H]2C/C=C\CCCC(=O)O1 , tested on SW-620 colon: 1.3 µM

O=C(Nc1ccc(Cl)cc1)N1CCN(c2ccc3nncn3n2)CC1 on SW-620 colon gives TGI = > 100 µM

TGI value, target or system SW-620 colon, for O=C(CC1Sc2ccccc2NC1=O)NNc1ccc(F)cc1 (stereo unspecified) : > 100 µM

With SW-620 colon as the test system, COc1nc2c(c(=O)[nH]1)N=C(c1ccc(Cl)cc1)CC(c1ccccc1)N2 (stereo unspecified) showed TGI of > 100 µM

Summary line: Cn1c(=O)[nH]c2c(c1=O)C(=O)CN2 , SW-620 colon, reported TGI = > 100 µM
